Values compiled from PubChem BioAssay AID602244.

Biological target: C-X-C chemokine receptor type 6 (Homo sapiens) (UniProt O00574)
Sequence (O00574 whole entry, looked up): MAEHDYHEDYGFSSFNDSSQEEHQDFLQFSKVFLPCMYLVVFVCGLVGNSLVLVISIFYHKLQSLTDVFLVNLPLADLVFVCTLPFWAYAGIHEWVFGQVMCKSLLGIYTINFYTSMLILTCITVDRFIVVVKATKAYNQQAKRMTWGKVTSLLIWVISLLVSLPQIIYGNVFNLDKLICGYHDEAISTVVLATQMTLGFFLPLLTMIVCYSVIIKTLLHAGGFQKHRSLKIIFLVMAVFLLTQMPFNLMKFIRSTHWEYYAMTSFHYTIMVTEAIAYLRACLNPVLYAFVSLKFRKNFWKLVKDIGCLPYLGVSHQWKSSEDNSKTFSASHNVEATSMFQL
Assay: blockade of CXCL16-induced CXCR6 beta-arrestin recruitment – cell-based, luminescence, CHO-K1 PathHunter, 1536-well, primary screen (AID 602244);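 also: antagonist mode with CXCL16 agonist at 10 nM final; 0% = 10 nM CXCL16 with DMSO and 100% = unstimulated wells without agonist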
Conditions: at 20 µM
Out of some 360,000 compounds screened, about 1,300 (0.36%) were called active. Rule as the data show it: active = inhibition above about 34% (passing the limit was not always enough); inactive = the rest. What follows is part of a selection rich in actives, with near analogues and random picks from the rest.
Outcome codes: yes (1) (active), no (0) (inactive)

>>> classification("Cc1cccc(N2C(=O)NC(=O)/C(=C\\c3cnn(-c4ccccc4)c3)C2=O)c1")
"yes (1)"
>>> classification("Cc1ccc(-c2nn(CCC#N)cc2C(=O)O)cc1C")
"no (0)"
>>> classification("CNC(=O)O/N=C(\\N)Cc1csc2ccc(Cl)cc12")
"no (0)"
